- target of assay: protein farnesyltransferase (Rattus norvegicus, UniProt Q02293+Q04631)
- Construct: The enzyme is purified according to Reiss, Y., et al., Cell, 62: 81-88 (1990), utilizing steps one through three; from tissue; host or cells: rat brain
- test name: Inhibition of farnesyltransferase (scintillation proximity assay, rat brain enzyme, biotin-K Ras B fragment substrate)
- Format: biochemical
- assay conditions: 1 × 10^-6 M (Table 2)
Everything with % inhibition of farnesyltransferase at 1 × 10^-6 M lower than 80% is 0; everything else, including exactly 80%, is 1.

Answered examples (2):
[[record]]
compound = "CSCC[C@H](NC(=O)c1ccc(CSCc2ccccc2)cc1-c1ccccc1C)C(=O)[O-].[Li+]"
class_assignment = 1

[[record]]
compound = "CSCC[C@H](NC(=O)c1ccc(CNc2ccccc2CCO)cc1-c1ccccc1)C(=O)O"
class_assignment = 0


Ask: Is % inhibition of farnesyltransferase at 1 × 10^-6 M at least 80%? Consider `CSCC[C@H](NC(=O)c1ccc(CN(Cc2ccccc2)c2ccccc2)cc1-c1ccccc1C)C(=O)O`
Reply: 1

Ask: Is the recorded value of % inhibition of farnesyltransferase at 1 × 10^-6 M equal to or greater than 80% for this compound? CSCC[C@H](NC(=O)c1ccc(CNC(CO)Cc2ccc(Cl)cc2)cc1-c1ccccc1)C(=O)O (stereo partly drawn)
Reply: 0

Ask: Could you tell me if the measured % inhibition of farnesyltransferase at 1 × 10^-6 M of `CSCC[C@H](NC(=O)c1ccc(OCCOc2ccccc2)cc1-c1ccccc1C)C(=O)O` reaches 80% or more?
Reply: 1

====

- target of assay: protein farnesyltransferase (Rattus norvegicus, UniProt Q02293+Q04631)
- Construct: The enzyme is purified according to Reiss, Y., et al., Cell, 62: 81-88 (1990), utilizing steps one through three; from tissue; host or cells: rat brain
- test name: Inhibition of farnesyltransferase (scintillation proximity assay, rat brain enzyme, biotin-K Ras B fragment substrate)
- Type: biochemical
- assay conditions: read-out: % inhibition of farnesyltransferase at 1 × 10^-6 M; 1 × 10^-6 M (Table 2)
Where a name gives a salt, the structure may show the parent alone.
inhibition at 1 µM below 70% gives label 0; inhibition at 1 µM at or above it gives label 1.

These solved cases illustrate the format of a correct answer.
[[record]]
molecule = "CSCC[C@H](NC(=O)c1ccc(CC(Cc2ccccc2)c2ccccc2)cc1-c1ccccc1C)C(=O)O (stereo partly drawn) [Example 572, lithium salt]"
target_of_assay = "protein farnesyltransferase (Rattus norvegicus, UniProt Q02293+Q04631)"
class_assignment = "label 1"

[[record]]
molecule = "Cc1ccccc1-c1cc(CCc2ccccc2Oc2ccccc2)ccc1C(=O)N[C@@H](CC[S+](C)[O-])C(=O)O (stereo partly drawn) [Example 456, lithium salt]"
target_of_assay = "protein farnesyltransferase (Rattus norvegicus, UniProt Q02293+Q04631)"
class_assignment = "label 1"

[[record]]
molecule = "Cc1ccccc1-c1cc(CN(C(C)C)C(C)(C)Cc2ccccc2)ccc1C(=O)N[C@@H](CCS(C)(=O)=O)C(=O)O"
target_of_assay = "protein farnesyltransferase (Rattus norvegicus, UniProt Q02293+Q04631)"
class_assignment = "label 1"

[[record]]
molecule = "CSCC[C@H](NC(=O)c1ccc(S(=O)(=O)N(Cc2ccccc2)c2ccccc2)cc1-c1ccccc1C)C(=O)O [Example 768, lithium salt]"
target_of_assay = "protein farnesyltransferase (Rattus norvegicus, UniProt Q02293+Q04631)"
class_assignment = "label 0"

[[record]]
molecule = "CSCC[C@H](NC(=O)c1ccc(CN2CCC(O)C2)cc1-c1ccccc1)C(=O)O (stereo partly drawn)"
target_of_assay = "protein farnesyltransferase (Rattus norvegicus, UniProt Q02293+Q04631)"
class_assignment = "label 0"


Ask: Does the reported inhibition at 1 µM for Cc1ccccc1-c1cc(CCc2ccc(Oc3ccccc3)cc2)ccc1C(=O)N[C@@H](CC[S+](C)[O-])C(=O)O (stereo partly drawn) [Example 463, lithium salt] fall at or above the 70% mark?
Reply: label 1
